Test method notes: logP by HPLC on reversed-phase columns (C18), EEC Directive 79/831 Annex V.A8
Format: physicochemical
Test conditions: pH 2.7, log P
Recorded endpoint: chromatographic logP

Worked cases, chromatographic logP given:
CNC(=O)c1cc(C#N)cc(C)c1NC(=O)c1cc(Oc2ccc(C(F)(F)F)cn2)nn1-c1ncccc1Cl    2.89
CNC(=O)c1cc(C#N)cc(C)c1NC(=O)c1cc(C#Cc2ccc(OC(F)(F)F)cc2)nn1-c1ncccc1Cl    3.88

Shifting focus to the compound that follows.
INPUT: Let me know recorded chromatographic logP for CNC(=O)c1cc(C#N)cc(C)c1NC(=O)c1cc(C(=O)Cn2nnc(C(F)(F)F)n2)nn1-c1ncccc1Cl , thanks.
OUTPUT: 2.89

====

Test method notes: logP by HPLC on reversed-phase columns (C18), EEC Directive 79/831 Annex V.A8
Assay type: physicochemical
Test conditions: pH 2.7, log P
Recorded endpoint: chromatographic logP
Numbers only.

Dear reader, for each entry below, please note its chromatographic logP.
1. Cc1cc(C#N)cc(C(=O)NC(C)C)c1NC(=O)c1cc(Nc2ccc(C(F)(F)F)cn2)nn1-c1ncccc1Cl
2. CNC(=O)c1cc(C#N)cc(C)c1NC(=O)c1cc(N2CCN(Cc3ccc(Cl)nc3)C2=O)nn1-c1ncccc1Cl
3. CNC(=O)c1cc(Cl)cc(C)c1NC(=O)c1cc(C#Cc2ccc(OC(F)(F)F)cc2)nn1-c1ncccc1Cl
4. CNC(=O)c1cc(Cl)cc(C)c1NC(=O)c1cc(C(=O)Nc2cc(C(F)(F)F)cc(C(F)(F)F)c2)nn1-c1ncccc1Cl

OUTPUT:
1. 3.31
2. 2.31
3. 4.29
4. 4.16

====

Test method notes: logP by HPLC on reversed-phase columns (C18), EEC Directive 79/831 Annex V.A8
Assay type: physicochemical
Test conditions: pH 2.7, log P
Exercise: state measured chromatographic logP for each of the compounds provided.
Give bare numbers.

Consider the reported chromatographic logP for these compounds:
CNC(=O)c1cc(C#N)cc(C)c1NC(=O)c1cc(Nc2cc(C(F)(F)F)c(C(F)(F)F)cn2)nn1-c1ncccc1Cl    3.5
Cc1cc(C#N)cc(C(=O)NC(C)C)c1NC(=O)c1cc(Nc2ccc(C(F)(F)F)cc2)nn1-c1ncccc1Cl    3.7
Cc1cc(Cl)cc(C(=O)NC(C)C)c1NC(=O)c1cc(CNS(=O)(=O)c2ccc(C(F)(F)F)cc2)nn1-c1ncccc1Cl    3.47
Cc1cc(C#N)cc(C(=O)NC(C)C)c1NC(=O)c1cc(Nc2ccc(C(F)(F)F)c(C(F)(F)F)c2)nn1-c1ncccc1Cl    3.91

Give me chromatographic logP for each of these compounds, listed below.
1. Cc1cc(C#N)cc(C(=O)NC(C)C)c1NC(=O)c1cc(C(=O)c2nc(C(F)(F)F)cs2)nn1-c1ncccc1Cl
2. Cc1cc(Cl)cc(C(N)=O)c1NC(=O)c1cc(C#Cc2ccc(OC(F)(F)F)cc2)nn1-c1ncccc1Cl
3. Cc1cc(C#N)cc(C(=O)NC(C)C)c1NC(=O)c1cc(Nc2cccc(C(F)(F)F)c2)nn1-c1ncccc1Cl
4. CNC(=O)c1cc(C#N)cc(C)c1NC(=O)c1cc(C(O)Cn2nnc(C(F)(F)F)n2)nn1-c1ncccc1Cl (centres unmarked)
5. Cc1cc(C#N)cc(C(=O)NC(C)(C)C)c1NC(=O)c1cc(N2CCN(Cc3ccc(Cl)nc3)C2=O)nn1-c1ncccc1Cl
6. CNC(=O)c1cc(C#N)cc(C)c1NC(=O)c1cc(Nc2cc(C(F)(F)F)ccn2)nn1-c1ncccc1Cl
7. Cc1cc(Cl)cc(C(=O)NC(C)C)c1NC(=O)c1cc(CNS(=O)(=O)c2ccccc2Cl)nn1-c1ncccc1Cl
8. CNC(=O)c1cc(Cl)cc(C)c1NC(=O)c1cc(CNS(=O)(=O)c2ccccc2Cl)nn1-c1ncccc1Cl

OUTPUT:
1: 3.24; 2: 3.94; 3: 3.66; 4: 2.01; 5: 3.02; 6: 2.76; 7: 3.06; 8: 2.58

Return reported chromatographic logP values for all items listed beneath this line.
1. CNC(=O)c1cc(Cl)cc(C)c1NC(=O)c1cc(C(=O)Nc2ccc(C(F)(F)F)cc2)nn1-c1ncccc1Cl
2. CNC(=O)c1cc(C#N)cc(C)c1NC(=O)c1cc(C(=O)c2ccc(C(F)(F)F)nc2)nn1-c1ncccc1Cl

OUTPUT:
1: 3.46; 2: 3.01

====

Test method notes: logP by HPLC on reversed-phase columns (C18), EEC Directive 79/831 Annex V.A8
Format: physicochemical
Test conditions: pH 2.7, log P
So I've got a bunch of compounds here, and I need their chromatographic logP values.
One number for each entry.

Below are 2 compounds. Give each one its chromatographic logP.
1. CNC(=O)c1cc(Cl)cc(C)c1NC(=O)c1cc(CN(C=O)c2ccc(Cl)cc2NS(C)(=O)=O)nn1-c1ncccc1Cl
2. Cc1cc(C#N)cc(C(=O)NC(C)(C)C)c1NC(=O)c1cc(C(=O)c2nc(C(F)(F)F)cs2)nn1-c1ncccc1Cl

OUTPUT:
[2.49, 3.57]

====

Would you mind telling me the reported chromatographic logP of each entry?
Test method notes: logP by HPLC on reversed-phase columns (C18), EEC Directive 79/831 Annex V.A8
Assay type: physicochemical
Test conditions: pH 2.7, log P
One number for each entry.

Take a look at these entries with their results.
Cc1cc(Cl)cc(C(=O)NC(C)C)c1NC(=O)c1cc(CNS(=O)(=O)c2ccc(Cl)cc2)nn1-c1ncccc1Cl    3.25
CNC(=O)c1cc(C#N)cc(C)c1NC(=O)c1cc(Nc2cccc(C(F)(F)F)n2)nn1-c1ncccc1Cl    2.89
CNC(=O)c1cc(C#N)cc(C)c1NC(=O)c1cc(/C=C/n2nnc(C(F)(F)F)n2)nn1-c1ncccc1Cl    3.17

// below: chromatographic logP requested for another compound
INPUT: Tell us which chromatographic logP value is on record for Cc1cc(C#N)cc(C(=O)NC(C)(C)C)c1NC(=O)c1cc(C(=O)Cn2nnc(C(F)(F)F)n2)nn1-c1ncccc1Cl
OUTPUT: 3.66

====

Test method notes: logP by HPLC on reversed-phase columns (C18), EEC Directive 79/831 Annex V.A8
Type: physicochemical
Test conditions: reversed-phase HPLC column (C18), pH 2.7, HPLC reversed-phase C18, acidic range pH 2.7; Preparation Examples (intermediates); read-out: logP
Protocol: The logP values reported in the table above and in the Preparation Examples were determined in accordance with EEC Directive 79/831 Annex V.A8 by HPLC (High Performance Liquid Chromatography) on reversed-phase columns (C18), with the following methods: […] Calibration was carried out using unbranched alkan-2-ones (having from 3 to 16 carbon atoms) with known logP values (the logP values were determined by the retention times using linear interpolation between two successive alkanones).
Is chromatographic logP at least 3? Then Fulfilled. If not, Not fulfilled.

Would you please look over these solved cases?
CCOC(=O)c1cc(N2CCN(c3cc(C(F)(F)F)cc(C(F)(F)F)c3)C2=O)nn1-c1ncccc1Cl    Fulfilled
COC(=O)c1cc(C=O)nn1-c1ncccc1Cl    Not fulfilled
CCOC(=O)c1cc(C(=O)Cn2nnc(C(F)(F)F)n2)nn1-c1ncccc1Cl    Fulfilled

INPUT: Given the entry COC(=O)c1cc(Cc2ccc(C(F)(F)F)nc2)nn1-c1ncccc1Cl , answer whether its chromatographic logP meets or surpasses 3.
OUTPUT: Not fulfilled

INPUT: Dear colleague, could you confirm whether O=C(O)c1cc([N+](=O)[O-])nn1-c1ncccc1Cl has chromatographic logP at or above 3?
OUTPUT: Not fulfilled

INPUT: Hello, I need to know if COC(=O)c1cc(Nc2ccc(C(F)(F)F)cn2)nn1-c1ncccc1Cl has measured chromatographic logP not below 3. Thanks!
OUTPUT: Fulfilled

INPUT: Assess whether reported chromatographic logP for CCOC(=O)c1cc(C(C)=O)nn1-c1ncccc1Cl sits at 3 or higher.
OUTPUT: Not fulfilled

INPUT: Given the entry O=C(Cn1nnc(C(F)(F)F)n1)c1cc(C(=O)O)n(-c2ncccc2Cl)n1 , answer whether its chromatographic logP meets or surpasses 3.
OUTPUT: Not fulfilled

INPUT: Is chromatographic logP for COC(=O)c1cc([N+](=O)[O-])nn1-c1ncccc1Cl at or above 3?
OUTPUT: Not fulfilled

INPUT: Hi, just wondering whether CCOC(=O)c1cc(C(=O)C(=O)c2ccc(Cl)cc2Cl)nn1-c1ncccc1Cl shows chromatographic logP of 3 or higher.
OUTPUT: Fulfilled

====

Test method notes: logP by HPLC on reversed-phase columns (C18), EEC Directive 79/831 Annex V.A8
Assay type: physicochemical
Test conditions: pH 2.7, log P
Recorded endpoint: chromatographic logP
One number for each entry.

Observe how each entry below is paired with its result.
CNC(=O)c1cc(Cl)cc(C)c1NC(=O)c1cc(N2CCN(Cc3ccc(Cl)nc3)C2=O)nn1-c1ncccc1Cl [Example 28]    2.64
CNC(=O)c1cc(Cl)cc(C)c1NC(=O)c1cc(CN(C=O)c2ccccc2NS(C)(=O)=O)nn1-c1ncccc1Cl [Example 32]    2.09
Cc1cc(Cl)cc(C(=O)NC(C)C)c1NC(=O)c1cc(CNS(=O)(=O)Cc2cccc(C(F)(F)F)c2)nn1-c1ncccc1Cl [Example 51]    3.42

Give one value of chromatographic logP per listed compound.
1. Cc1cc(Cl)cc(C(N)=O)c1NC(=O)c1cc(C(=O)C(=O)c2ccc(Cl)cc2Cl)nn1-c1ncccc1Cl [Example 31]
2. Cc1cc(Br)cc(C(=O)NC(C)C)c1NC(=O)c1cc(C(=O)Nc2ccc(C(F)(F)F)cc2)nn1-c1ncccc1Cl [Example 3]
3. Cc1cc(Cl)cc(C(=O)NC(C)C)c1NC(=O)c1cc(C(=O)Nc2ccc(C(F)(F)F)cc2)nn1-c1ncccc1Cl [Example 4]
4. Cc1cc(Cl)cc(C(=O)NC(C)C)c1NC(=O)c1cc(CNS(=O)(=O)c2cccc(C(F)(F)F)c2)nn1-c1ncccc1Cl [Example 48]

OUTPUT:
3.51
4.02
3.96
3.43
